Here the recorded %Inh is given for each entry.
test system: p38-delta; details: concentration: 1 μM, replicates: in singlicate; n = 1;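 further: KINOMEscan kinase panel screen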
property label: %Inh (%)

# compound, reported measurement
measured = [
    ("Fc1cc(Cl)ccc1Nc1ccnc2cc(I)ccc12 [GW551191]", 41),
    ("C[C@@H]1CCCCN1c1cc(-c2ccc3c(N)n[nH]c3c2)nc(N)n1 [GSK2258759]", 26),
    ("Cn1ccc2ncnc(Oc3cccc(C(=O)Nc4ccccc4)c3)c21", 3),
    ("Cl.c1ccc(-c2n[nH]cc2-c2ccnc(-c3ccc(CN4CCOCC4)cc3)c2)nc1 [GW776245]", 7),
    ("Cn1ccc2ncnc(Oc3ccc(Nc4nc5ccccc5[nH]4)cc3)c21", 16),
    ("Cc1c(O)cccc1Nc1ccnc2ccc(C(F)(F)F)cc12.Cl [GW466413]", 24),
    ("Cc1ccccc1-n1cnc2c(N)ncnc21 [SKF-97510]", 0),
    ("Cc1cccc(-c2cc(Nc3ccncc3)c3ccccc3n2)n1 [GSK223675]", 42),
    ("O=C(Nc1ccccc1)Nc1cccc(Oc2ccc3nccn3n2)c1", 0),
]

* * *

system: EPHA7; settings: concentration: 1 μM, replicates: in singlicate; n = 1
Rule: %Inh below 3% gives TRUE. Equal to or above 3% gives FALSE.

# compound, target system, classification
rows = [
    ("Cc1ccc(NC(=O)Nc2cc(C(C)(C)C)nn2-c2ccccc2)cc1", "EPHA7", "FALSE"),
    ("COc1ccc(Nc2nccc(NCCNC(=O)Nc3ccccc3F)n2)cc1", "EPHA7", "FALSE"),
    ("COC(=O)c1c(-c2ccccc2)c2cc(OC)ccc2c(=O)n1Cc1ccccc1", "EPHA7", "TRUE"),
    ("COc1ccccc1-c1ccc2c(NC(=O)C3CC3)n[nH]c2n1", "EPHA7", "FALSE"),
    ("O=C(O)COc1ncnc2cc(-c3ccc4[nH]ncc4c3)sc12", "EPHA7", "TRUE"),
    ("Cc1cc(NCC(c2ccccc2)c2ccccc2)nc(NCc2ccc(C(F)(F)F)cc2)n1", "EPHA7", "FALSE"),
    ("CC1=C(C(=O)Nc2cc3cn[nH]c3cc2F)C(c2ccc(C(F)(F)F)cc2)CC(=O)N1 (centres unmarked)", "EPHA7", "FALSE"),
]

* * *

tested on: ACVR1; conditions: concentration: 1 μM, replicates: in singlicate; n = 1

# compound, %Inh / %
rows = [
    ("CCn1c(-c2cccnc2O)nc2cnccc21", 0),
    ("CN(C)CCN(C)C(=O)c1cc(-c2ccncc2)c(-c2ccc(Cl)c(O)c2)o1.Cl.Cl", 0),
    ("Cc1ccccc1-n1cnc2c(N)ncnc21", 10),
    ("CCCc1ccc(S(=O)(=O)NC2CCN(c3ccnc(Nc4ccc(F)cc4)n3)C2)cc1 (stereo not shown)", 16),
]

* * *

system: SRPK2; settings: concentration: 1 μM, replicates: in singlicate; n = 1
Recorded %Inh for the following compounds

# compound, %Inh / %
records = [
    ("COc1ccc2nc(-c3cccc(C)n3)nc(Nc3ccncc3)c2c1", 0),
    ("Cc1cccc(-c2nc(-c3ccc(S(C)(=O)=O)cc3)sc2-c2ccnc(NCCc3ccccc3)c2)c1", 23),
    ("Cn1ccc2ncnc(Oc3ccc(Nc4nc5ccccc5[nH]4)cc3)c21", 7),
    ("Nc1ncnc2[nH]c(-c3ccccc3)nc12", 0),
    ("O=C(Nc1ccc2c(c1)OCO2)NC1CCN(c2ccnc(Nc3ccc(F)cc3)n2)C1 (centres unmarked)", 0),
    ("Cc1cccc(-c2nc(Nc3cccc(C(N)=O)c3)c3ccccc3n2)n1", 23),
    ("Cn1ccc2ncnc(Oc3ccc(NC(=O)Nc4ccccc4)cc3)c21", 0),
    ("Cc1cccc(-c2nc(C)cc(Nc3ccncc3)n2)n1", 0),
    ("Cc1c(O)cccc1Nc1ccnc2ccc(C(F)(F)F)cc12.Cl", 0),
    ("CCCc1ccc(S(=O)(=O)NC2CCN(c3ccnc(Nc4ccc(F)cc4)n3)C2)cc1 (centres unmarked)", 17),
    ("COc1ccc(CNC(=O)NC2CCN(c3ccnc(Nc4cc(OC)c(OC)c(OC)c4)n3)C2)cc1 (centres unmarked)", 31),
]

* * *

system: CAMKK1; conditions: concentration: 1 μM, replicates: in singlicate; n = 1
Classify as follows. Reported %Inh greater than or equal to 9%: True. Reported %Inh below: False.

# compound, target system, classification
data = [
    ("CC(C)(C)c1ccc(C(=O)Nc2cn3cc(-c4cccnc4)ccc3n2)cc1", "CAMKK1", "True"),
    ("Cl.O=C(Nc1cccc(-c2nn3ncccc3c2-c2ccnc(Nc3cccnc3)n2)c1)c1c(F)cccc1F [GSK312879]", "CAMKK1", "False"),
    ("Cc1ccc(-c2cc(-c3c[nH]nc3-c3ccccn3)ccn2)cc1 [GW684088]", "CAMKK1", "True"),
    ("Cc1cccc(-c2nc(Nc3ccc4[nH]ncc4c3)c3ccccc3n2)n1 [GW857175]", "CAMKK1", "False"),
    ("COc1ccc(C2=C(Nc3cccc(C(=O)O)c3)C(=O)NC2=O)cc1 [SB-390765]", "CAMKK1", "False"),
    ("Cc1cc(N2Cc3ccccc3C2)nc(Nc2ccc(S(=O)(=O)N3CCOCC3)cc2)n1.Cl [GSK1669917]", "CAMKK1", "False"),
    ("COc1cc2nccc(Nc3ccc(NC(=O)c4ccc(C)cc4)c(O)c3)c2cc1OC.Cl [GW440132]", "CAMKK1", "False"),
    ("COc1ccc(Nc2nccc(-c3cccc(NC(=O)c4cc5cc(F)ccc5[nH]4)c3)n2)cc1 [GSK1229782]", "CAMKK1", "True"),
    ("CC1=C(C(=O)Nc2cc3cn[nH]c3cc2F)C(c2ccc(C(F)(F)F)cc2)CC(=O)N1 (stereo not shown) [GSK429286]", "CAMKK1", "True"),
    ("O=c1cc(N2CCOCC2)nc2n(Cc3cccc(Cl)c3Cl)ccn12 [GSK2286295]", "CAMKK1", "True"),
    ("Cc1cccc(-c2nc(-c3ccc(S(C)(=O)=O)cc3)sc2-c2ccnc(NCCc3ccccc3)c2)c1", "CAMKK1", "True"),
    ("CS(=O)(=O)c1ccc(-c2nc3n(c2-c2ccncc2)CCC3)cc1 [SKF-105942]", "CAMKK1", "False"),
    ("Cc1cccc(-c2nc(Nc3ccncc3)c3ccccc3n2)n1 [GW855857]", "CAMKK1", "True"),
    ("Cn1ccc2ncnc(Oc3ccc(NC(=O)Nc4ccccc4)cc3)c21", "CAMKK1", "False"),
    ("COC(=O)c1c(-c2ccccc2)c2cc(OC)ccc2c(=O)n1Cc1ccccc1", "CAMKK1", "True"),
    ("O=C(Nc1ccccc1)Nc1cccc(Oc2ccc3nccn3n2)c1", "CAMKK1", "False"),
    ("Cc1ccc(NC(=O)Nc2cc(C(C)(C)C)nn2-c2ccccc2)cc1 [GSK1014915]", "CAMKK1", "True"),
    ("COc1cc(Nc2nccc(N3CCC(NC(=O)Nc4cc(C)ccc4C)C3)n2)cc(OC)c1OC (stereo not shown) [GSK1379762]", "CAMKK1", "True"),
    ("Nc1nc(-c2nccs2)c(-c2ccnc3ccccc23)s1 [GW693542]", "CAMKK1", "False"),
    ("Cn1cncc1-c1ccc2ncnc(Nc3ccc(OCc4ccccc4)cc3)c2c1 [GW320571]", "CAMKK1", "False"),
]

* * *

tested on: TRPM6; conditions: concentration: 1 μM, replicates: in singlicate; n = 1
property label: %Inh (%)

# molecule, unit info, reported measurement
data = [
    ("CS(=O)(=O)c1ccc(-c2c(-c3ncn[nH]3)sc(N3CCOCC3)c2C#N)cc1", "%", 0),
    ("COc1cc2ncn(-c3cc(OCC4CCCO4)c(C(N)=O)s3)c2cc1OC (stereo not drawn) [GSK204607]", "%", 0),
    ("Cc1cccc(-c2nc(-c3ccc(S(C)(=O)=O)cc3)sc2-c2ccnc(NCCc3ccccc3)c2)c1", "%", 0),
]

* * *

tested on: NEK1; settings: concentration: 1 μM, replicates: in singlicate; n = 1
The reader will find reported %Inh values listed item by item below.

# compound, %Inh [%]
data = [
    ("Fc1cc(Cl)ccc1Nc1ccnc2cc(-c3ccc(CN4CCCCC4)o3)ccc12", 0),
    ("Cc1c(Cn2ccn3c(=O)cc(N4CCOCC4)nc23)cccc1C(F)(F)F", 0),
    ("Nc1nc(-c2nccs2)c(-c2ccnc3ccccc23)s1", 0),
    ("CCn1c(-c2cccnc2O)nc2cnccc21", 0),
    ("O=c1cc(N2CCOCC2)nc2n(Cc3cccc(Cl)c3Cl)ccn12", 0),
    ("O=C(Nc1n[nH]c2nc(-c3nccs3)c(Br)cc12)C1CC1", 0),
    ("Cl.Oc1ccc(-c2nc(-c3ccccc3)[nH]c2-c2ccncc2)cc1", 0),
    ("Cc1cc(N2Cc3ccccc3C2)nc(Nc2ccc(S(=O)(=O)N3CCOCC3)cc2)n1.Cl", 0),
    ("C[C@@H]1CCCCN1c1cc(-c2ccc3c(N)n[nH]c3c2)nc(N)n1", 0),
    ("CCCc1ccc(S(=O)(=O)NC2CCN(c3ccnc(Nc4ccc(F)cc4)n3)C2)cc1 (stereo not shown)", 88),
    ("CS(=O)(=O)c1ccc(-c2nc3n(c2-c2ccncc2)CCC3)cc1", 0),
    ("Cn1ccc2ncnc(Oc3ccc(Nc4nc5ccccc5[nH]4)cc3)c21", 0),
    ("Cl.NC(=O)c1cccc(Nc2nccc(Nc3ccc(Oc4cccc(Cl)c4)c(Cl)c3)n2)c1", 0),
    ("Cc1cc(-c2ccc3c(c2)CC[C@@H](N[C@@H](C)c2ccccc2)C3)cnc1N.Cl", 0),
    ("COc1ccc(C2=C(Nc3cccc(C(=O)O)c3)C(=O)NC2=O)cc1", 0),
    ("COc1ccc2nc(-c3cccc(C)n3)nc(Nc3ccncc3)c2c1", 0),
    ("O=C(O)COc1ncnc2cc(-c3ccc4[nH]ncc4c3)sc12", 0),
    ("CC(C)(C)c1ccc(C(=O)Nc2cn3cc(-c4cccnc4)ccc3n2)cc1", 13),
    ("CC(=O)Nc1nc2cnc(Nc3cc(NC(=O)c4cccc(CCC#N)c4)ccc3C)nc2s1", 0),
    ("Cc1ccccc1-n1cnc2c(N)ncnc21", 11),
    ("CCn1c(-c2ccccn2)nc2cnccc21", 100),
    ("CC1=C(C(=O)Nc2cc3cn[nH]c3cc2F)C(c2ccc(C(F)(F)F)cc2)CC(=O)N1 (stereo not shown)", 0),
    ("COc1cc(Nc2nccc(N3CCC(NC(=O)Nc4cc(C)ccc4C)C3)n2)cc(OC)c1OC (stereo not shown)", 22),
    ("Cc1cccc(-c2nc(Nc3ccncc3)c3ccccc3n2)n1", 0),
    ("COc1ccc(Nc2nccc(-c3cccc(NC(=O)c4cc5cc(F)ccc5[nH]4)c3)n2)cc1", 12),
    ("Cc1ccc(NC(=O)Nc2cccc(Cl)c2)cc1-c1ccc(C(=O)Nc2ccncc2)cc1", 0),
    ("O=C(Nc1ccc2c(c1)OCO2)NC1CCN(c2ccnc(Nc3ccc(F)cc3)n2)C1 (stereo not shown)", 0),
    ("Cn1ccc2ncnc(Oc3ccc(NC(=O)Nc4ccccc4)cc3)c21", 0),
    ("COC(=O)c1c(-c2ccccc2)c2cc(OC)ccc2c(=O)n1Cc1ccccc1", 7),
    ("Cc1cccc(-c2cc(Nc3ccncc3)c3ccccc3n2)n1", 0),
    ("CN1C(=O)C(Nc2ccc(Cl)c(C(=O)O)c2)=C(c2ccc(Cl)cc2)C1=O", 0),
]
